For each record, write down the corresponding OD450.
molecular target: T1, biotin-peptide TDFTSPIPNM (human); assay: ELISA biotin-peptide; scFv 10 ug/mL; repII
T1 peptide: Biotin-TDFTSPIPNM
Where no end group is shown, it is not given here. The star is where a group is joined. Biotin = O=C1N[C@H]2[C@H](CS[C@H]2CCCCC(=O)*)N1
Numbers only, in OD.

The cases that follow already have their OD450 on record.
CCR9_HUM2 scFv (humanized anti-CCR9 scFv, SEQ ID NO: 17 with C-terminal 6xHis tag) (scFv) scFv: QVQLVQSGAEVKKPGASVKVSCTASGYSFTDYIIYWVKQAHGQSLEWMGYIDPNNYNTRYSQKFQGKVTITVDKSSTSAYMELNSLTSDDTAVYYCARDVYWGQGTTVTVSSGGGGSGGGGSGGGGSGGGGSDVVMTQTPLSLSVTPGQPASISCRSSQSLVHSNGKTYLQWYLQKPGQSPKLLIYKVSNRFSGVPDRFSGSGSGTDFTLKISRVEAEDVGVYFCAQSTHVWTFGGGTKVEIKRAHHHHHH	0.09
Comparative antibody 3 (Comp-3) scFv, SR_92R (Somovilla-Crespo et al. 2018), His-tagged (scFv) scFv: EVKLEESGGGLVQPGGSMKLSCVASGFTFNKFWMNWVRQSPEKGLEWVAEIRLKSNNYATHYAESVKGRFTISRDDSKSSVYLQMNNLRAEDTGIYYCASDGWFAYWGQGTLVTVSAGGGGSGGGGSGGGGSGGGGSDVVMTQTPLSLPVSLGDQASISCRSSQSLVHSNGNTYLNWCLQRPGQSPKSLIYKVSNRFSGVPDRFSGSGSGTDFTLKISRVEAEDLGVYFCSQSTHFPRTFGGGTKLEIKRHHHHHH	0.11

Batch request: OD450 per item, same order as input.
1. Comparative antibody 1 (Comp-1) scFv, SEQ ID NO: 10 from WO2023/037125 A1, His-tagged (scFv) scFv: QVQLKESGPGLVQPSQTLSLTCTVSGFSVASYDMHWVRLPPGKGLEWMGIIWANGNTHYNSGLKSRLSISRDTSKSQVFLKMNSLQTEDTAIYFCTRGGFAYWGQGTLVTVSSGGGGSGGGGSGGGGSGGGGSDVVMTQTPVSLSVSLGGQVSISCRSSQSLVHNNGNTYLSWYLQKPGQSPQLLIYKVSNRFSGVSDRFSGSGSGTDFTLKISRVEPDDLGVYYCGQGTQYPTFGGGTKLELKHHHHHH
2. Comparative antibody 2 (Comp-2) scFv, 243LO326 (VH SEQ ID NO: 51 and VL SEQ ID NO: 52 of WO 2022/195028 A2), His-tagged (scFv) scFv: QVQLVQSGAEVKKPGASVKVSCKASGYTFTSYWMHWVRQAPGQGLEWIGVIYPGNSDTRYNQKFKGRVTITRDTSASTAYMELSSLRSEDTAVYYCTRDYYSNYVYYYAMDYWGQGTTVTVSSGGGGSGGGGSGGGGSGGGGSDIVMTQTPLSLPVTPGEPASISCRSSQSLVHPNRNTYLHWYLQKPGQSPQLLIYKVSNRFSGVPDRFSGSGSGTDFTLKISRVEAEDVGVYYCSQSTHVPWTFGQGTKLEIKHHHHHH

0.08
0.12
